Each recorded value in this set is attributed to the supplement of paper PMC10567573.

B1: BTBD1 (parent)
chain: TSAEIELPDVEPAAFLALLRFLYS

# Variants of: B1
# methodSummary: protein stability index of a GFP-peptide fusion (GPS, HEK-293T) (PSI 1-6); higher = more stable;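 note: lentivirally expressed fusions sorted by FACS into six bins by GFP to DsRed ratio, PSI derived from sequencing read proportions per bin multiplied by bin number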
# testContext: c terminus: a fixed tail appended

variantLabel	protein stability index
P8K	1.46
E6S	2.49
L18P	2.11
D9L	1.63
S24D	1.89
F21H	2.14
I5P	1.68
E6I	2.82
Y23A	1.99
L18N	1.57
E6Y	1.74
I5M	1.89
E11F	1.68
P12V	2.46
L18Y	1.59
L7F	1.96
E6F	1.64
F15G	2.23
R20G	2.67
Y23I	1.97
F21C	1.4
A3H	1.8
